experimentNotes: endothelial E-selectin expression blockers – imaging, HUVEC, immunofluorescence, MLSMR starter and 10KST1 sets, primary screen (AID 487);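 note: 100% = median nuclei count of all wells on the same plate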
measurementConditions: HUVEC TNFalpha-induced E-selectin immunofluorescence imaging, at 2 µM; measured here: cell number, toxicity
measureName: nuclei count (%)

* COc1cc(S(=O)(=O)N2CCOCC2)ccc1NC(=O)COC(=O)c1ccccn1 | 101
* O=C(COc1ccc(Cl)cc1)Nc1nc(-c2cccs2)cs1 | 114
* COCCN1C=C(C(=O)OC)C(c2cc3c(cc2Br)OCO3)C(C(=O)OC)=C1 | 46.8
* CCc1nn(CC(=O)NCCCN2CCc3ccccc3C2)c(=O)c2cc3sccc3n12 | 116
* COc1cccc(S(=O)(=O)Nc2cccnc2)c1 | 96.4
* CCOC(=O)CSc1nc2cc(C(=O)N3CCC(C(N)=O)CC3)ccc2c(=O)n1-c1ccccc1 | 95.3
* Nc1nnc(SCC(=O)N2CCN(c3ccccc3)CC2)n1-c1ccccc1 | 111
* O=C(Nc1ccc2[nH]c3c(c2c1)CCCC3)c1ccco1 | 103
* O=C(c1cccnc1NCc1ccccc1)N1CCOCC1 | 116
* CN1C(=O)c2oc3ccccc3c(=O)c2C1c1ccccn1 (configuration not stated) | 87.5
* O=C1CCN(C(=O)c2ccccc2)C2CCCCC12 (configuration not stated) | 81.9
* c1ccc2c(c1)C(=Nn1cnnc1)c1ccccc1-2 | 122
* COc1ccc(NC(=O)CSc2nc3c(c(=O)n2-c2ccc(F)cc2)SCC3)c(OC)c1 | 114
* CC(=O)Nc1ccc(N2CCN(Cc3ccccc3F)CC2)cc1 | 120
* CC(=O)c1cccc(NC(=O)N2C3CCC2CC(O)(c2cccnc2)C3)c1 (configuration not stated) | 106
* CCc1nnc(NC(=O)CSc2nnc(-c3ccoc3C)n2CC(C)C)s1 | 91
* CCCCCc1nnc(NC(=O)Cc2cccs2)s1 | 95.6
* Cc1ccc(OCC(O)Cn2c(=N)n(CCN3CCCCC3)c3ccccc32)cc1 (configuration not stated) | 96.8
* CCOC(=O)c1c(NCc2ccc3c(c2)OCO3)c2ccccc2[nH]c1=O | 111
* CCC(C(=O)Nc1ncccn1)(C(F)(F)F)C(F)(F)F | 110
* Cc1ccc2c(c1)-c1c(cnn1CC(=O)NC(C)CCc1ccco1)CO2 (configuration not stated) | 125
* COc1cccc(N2C(=O)N(c3ccccc3Cl)C3CS(=O)(=O)CC32)c1 (configuration not stated) | 122
* CC(n1cnnn1)C12CC3CC(CC(C3)C1)C2 (configuration not stated) | 114
* CCOC(=O)c1cccc(NC(=O)CSc2nc3cccnc3n2C)c1 | 105
* Cc1cc(C)c2c(n1)nn1c(N3CCN(c4ccccc4C)CC3)cc(C)nc21 | 110
* CC(C)c1nc(N2CCN(C(=O)c3ccco3)CC2)c2c3c(sc2n1)CCCC3 | 103
* Cc1ccc(S(=O)(=O)NCCSc2nnnn2-c2ccc(C(N)=O)cc2)cc1 | 111
